B1: library; numbered along this chain (parent)
chain: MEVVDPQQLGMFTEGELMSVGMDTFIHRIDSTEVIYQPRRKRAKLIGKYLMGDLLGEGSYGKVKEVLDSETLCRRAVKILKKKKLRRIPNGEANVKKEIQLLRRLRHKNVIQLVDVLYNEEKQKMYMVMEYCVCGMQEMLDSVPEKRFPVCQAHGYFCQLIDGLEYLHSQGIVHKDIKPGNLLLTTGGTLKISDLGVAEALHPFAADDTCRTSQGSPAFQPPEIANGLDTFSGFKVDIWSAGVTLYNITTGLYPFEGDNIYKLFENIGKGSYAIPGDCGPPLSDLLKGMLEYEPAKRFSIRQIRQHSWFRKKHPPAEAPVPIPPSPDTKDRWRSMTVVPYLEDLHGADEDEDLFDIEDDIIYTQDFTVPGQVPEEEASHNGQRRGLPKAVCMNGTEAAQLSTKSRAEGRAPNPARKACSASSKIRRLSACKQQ

- Variants of: B1
- TEST DETAILS: STK11 functional score (HeLa growth suppression), rescaled enrichment; synonymous median = 1, nonsense median = 0 (normalised score)
- CONDITION PARAMETERS: with HeLa; variant type: missense
MEASURE: STK11 functional score
Output: the number by itself.

1. K269P; 1.26

Fill in the blank: the reported STK11 functional score of H107A is ____.
0.964

Need STK11 functional score of S271Y , thanks.
-0.251

Would you mind telling me what STK11 functional score value was observed for L201F ?
0.797

Value lookup for STK11 functional score; key = R415G
1.53

Which STK11 functional score is listed for A377L ?
1.04

What value of measured STK11 functional score is listed for A398C ?
1.35

Request the reported STK11 functional score associated with L17W
1.56

# query: STK11 functional score of entry L183R
0.0747
